// values below are reported composite z-score
- Test system: Fibrinogen (Alexa647-labelled)
- assay: fibrinogen binders on compound microarrays, profiling panel, artefact control for SMM control-protein annotation, biochemical, small-molecule microarray, 635/667 nm fluorescence (AID 1131);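 also: z-score merges 667 nm fluorescence with per-spot signal-to-noise over triplicate slides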
- reported-conditions: fibrinogen-A647 binding fluorescence, higher = more signal
When you answer, write just the number.

Consider the worked cases shown below.
{"columns": ["smiles-text", "composite z-score"],
 "data": [
  ["CC(C)=CCCC(C)=CCON=C1C[C@@H](O)[C@@H](O)[C@@H]2[C@@H]3C(=O)N(C4CCCCC4)C(=O)[C@@H]3CC[C@@H]12", -0.229],
  ["CC(C)(C)N1C(=O)[C@H]2[C@H]3[C@H](O)[C@H](O)CC(=O)[C@@H]3CC[C@H]2C1=O", -0.642],
  ["CCCNC(=O)OC[C@H]1O[C@H](CCON=Cc2ccc(C(=O)N3[C@H](c4ccc(C)cc4)[C@@H](C)CC[C@H]3C(=O)OC)cc2)C=C[C@@H]1Oc1ccc(OC)cc1", 0.88],
  ["O=c1n(Cc2cc3c(cc2Cl)OCO3)c(=O)n2n1CC[C@@H]1C(=NOCc3ccccc3)[C@H]3O[C@H]3[C@@H](O)[C@@H]12", 0.623],
  ["CCCCC#C[C@@H]1C=C[C@H](Oc2cc(OC)c(OC)c(OC)c2)[C@@H](COC(=O)OCC)O1", 0.388],
  ["COc1ccc(O[C@H]2C=C[C@@H](c3ccccc3)O[C@@H]2CON=C(C)CCC(=O)OC[C@H]2O[C@H](c3ccccc3)C=C[C@@H]2Oc2ccc(OC)cc2)cc1", -0.218]
]}

// moving on: another record for composite z-score
Problem: Requested read-out: composite z-score. Entry: `CCCCC#C[C@@H]1C=C[C@H](Oc2ccc(C(=O)OC)cc2)[C@@H](COC(=O)OCC)O1`
Solution: 0.531

---

- target-system: Concanavalin-A (Canavalia ensiformis) (UniProt P02866)
- Sequence (P02866 whole entry, looked up): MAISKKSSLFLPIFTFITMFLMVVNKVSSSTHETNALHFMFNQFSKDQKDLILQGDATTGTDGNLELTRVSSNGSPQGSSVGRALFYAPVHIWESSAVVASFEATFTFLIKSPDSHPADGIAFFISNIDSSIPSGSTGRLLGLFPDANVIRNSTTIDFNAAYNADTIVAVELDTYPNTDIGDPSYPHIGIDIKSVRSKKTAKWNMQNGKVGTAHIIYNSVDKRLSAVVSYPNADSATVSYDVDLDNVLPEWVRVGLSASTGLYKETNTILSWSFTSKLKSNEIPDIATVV
- assay: ConA small-molecule binders, primary screen, artefact control for SMM control protein annotation, biochemical, small-molecule microarray, Alexa647 label, 635 nm (AID 1127);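 also: z combines 667 nm emission intensity with signal-to-noise across three replicate slides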
- reported-conditions: ConA-A647 binding fluorescence, higher = more signal
Catalogue of composite z-score values
The response must contain the number and no unit.

Example entries begin here.
{"columns": ["smiles-text", "composite z-score"],
 "data": [
  ["COc1ccc(O[C@H]2C=C[C@@H](c3ccccc3)O[C@@H]2CON=C(C)CCN2CCc3nc(-c4ccccc4)c(-c4ccccc4)cc3C2)cc1", 0.799],
  ["C[C@@H](c1ccccc1)N1C(=O)[C@H]2[C@H]3[C@H](O)[C@H](O)CC(=NO[C@@H]4O[C@H](CO)[C@@H](O)[C@H](O)[C@H]4O)[C@H]3CC[C@H]2C1=O", 0.44]
]}

Problem: Which composite z-score value belongs to `CC(C)=CCCC(C)=CCON=C1C[C@@H](O)[C@@H](O)[C@@H]2[C@@H]3C(=O)N(c4cccc(Oc5ccccc5)c4)C(=O)[C@@H]3CC[C@@H]12` ?
Solution: 0.0876

---

z-score by entry:
- assay: FRG1 promoter luciferase signal modulators, primary screen, FRG1 inhibition for FSHD, cell-based, C2C12 myotubes, firefly/Renilla luciferase, luminescence (AID 1084)
- reported-conditions: higher = more signal, called active from +8 up or from −8 down
Give the value as a plain number.

Problem: Entry under review: `C[C@@H]1CC[C@H]2C(=O)O[C@@H](COc3ccc(C(C)(C)C)cc3)CN2[C@@H]1c1ccc(Br)cc1` . Reported z-score?
Solution: 1.03
